- test-target: K-Ras (G12C) (Homo sapiens, UniProt P01116, G12C)
- test-name: MicroScale Thermophoresis (MST) GTP affinity
- details: read-out: MST GTP affinity for binding domain
assay-metric: Kd (nM)

> print(dat)
                                smiles.data  assay.metric  reported.measurement
1  Nc1nc2c(ncn2[C@@H]2O[C@H](COP(=O)(O)OP(=O)(O)OP(=O)(O)O)[C@@H](O)[C@H]2O)c(=O)[nH]1            Kd                   207

* * *

solubility kinetic at 2 h overview
- test-name: Kinetic solubility assay
- Format: physicochemical
- details: phosphate-buffered saline pH 7.4 with 2% DMSO, aqueous buffer, kinetic from dmso stock; pH 7.4 PBS + 2% DMSO, 25° C., two hours; effective range approximately 2-400 μM
- Description: Equipment: Water purification system Millipore Milli-Q Gradient A10 (Millipore, France); Thermomixer R Block, 1.5 ml (Eppendorf, Germany; Cat #5355); Matrix Multichannel Electronic Pipette 2-125 μL, 5-250 μL, 15-1250 μL (Thermo Scientific, USA; Cat ##2011, 2012, 2004); SpectraMax Plus Microplate Reader (Molecular Devices, USA; Product #02196); Multi-Well Plate Vacuum Manifold (Pall Corporation, USA; Product #5014); and Vacuum pump (Millipore, USA; Model #XX5500000) […]
assay-metric: solubility kinetic at 2 h (µM)

> print(dat)
                                   molecule               assay.metric  value.qualifier  reported.measurement
1  COC1CCN(c2nc(-c3nccn3C)nc3sc(-c4ccn(C(C)C)n4)c(C)c23)C1 (racemic)  solubility kinetic at 2 h                >                   400
2  CO[C@H]1CC[C@@H](Nc2nc(-c3ccccn3)nc3sc(-c4ccn(C(C)C)n4)c(C)c23)C1 (racemic)  solubility kinetic at 2 h                =                    79
3  CO[C@@H]1CC[C@@H](Nc2nc(-c3nccn3C)nc3sc(-c4ccn(C(C)C)n4)c(C)c23)C1 (racemic)  solubility kinetic at 2 h                =                    49
4  COCCCNc1nc(-c2nccn2C)nc2sc(-c3ccn(C(C)C)n3)c(C)c12  solubility kinetic at 2 h                =                   268
5  CO[C@H]1CC(Nc2nc(-c3nccn3C)nc3sc(-c4ccn(C(C)C)n4)c(C)c23)C[C@@H]1OC (racemic)  solubility kinetic at 2 h                =                    76
6  COCC1CCN(c2nc(-c3nccn3C)nc3sc(-c4ccn(C(C)C)n4)c(C)c23)C1 (racemic)  solubility kinetic at 2 h                >                   400
7  COC[C@@H]1CC[C@@H]1CNc1nc(-c2nccn2C)nc2sc(-c3ccn(C(C)C)n3)c(C)c12 (racemic)  solubility kinetic at 2 h                =                    18

* * *

- test-target: Rac-1 (Homo sapiens, UniProt P63000)
- test-name: Ras GTP binding domain inhibition assay (labeled-GTP competition, cell-free)
- Set-up: made in house
- details: without SOS, read-out: Rac-1: % inh.
assay-metric: inhibition at 20 µM

> print(dat)
                                    compound         assay.metric  reported.measurement
 1  COCCCNc1nc(-c2nccn2C)nc2sc(-c3ccn(C(C)C)n3)c(C)c12 [Compound 36]  inhibition at 20 µM            76 to 100%
 2  CO[C@H]1CC[C@@H](Nc2nc(-c3nccn3C)nc3sc(-c4ccn(C(C)C)n4)c(C)c23)C1 [Compound 32]  inhibition at 20 µM             26 to 50%
 3  Cc1c(-c2ccn(C(C)C)n2)sc2nc(-c3nccn3C)nc(NCc3c[nH]cn3)c12 [Compound 59]  inhibition at 20 µM             51 to 75%
 4  COC1CCN(c2nc(-c3nccn3C)nc3sc(-c4ccn(C(C)C)n4)c(C)c23)C1 (racemic) [Compound 34]  inhibition at 20 µM            76 to 100%
 5  CO[C@H]1C[C@@H](CNc2nc(-c3nccn3C)nc3sc(-c4ccn(C(C)C)n4)c(C)c23)C1 [Compound 47]  inhibition at 20 µM             51 to 75%
 6  O=C(c1nc(O)c2scc(-c3ccccn3)c2n1)N1CCOCC1 [Compound 22]  inhibition at 20 µM              1 to 25%
 7  Cn1ccnc1-c1nc(O)c2scc(-c3ncccc3F)c2n1 [Compound 30]  inhibition at 20 µM             51 to 75%
 8  CO[C@@H]1CC[C@@H](Nc2nc(-c3nccn3C)nc3sc(-c4ccn(C(C)C)n4)c(C)c23)C1 (racemic) [Compound 33]  inhibition at 20 µM             51 to 75%
 9  Cc1c(-c2ccn(C(C)C)n2)sc2nc(-c3ccccn3)nc(N3CCC(COC(C)C)C3)c12 (stereo not shown) [Compound 72]  inhibition at 20 µM                    0%
10  Cc1c(-c2ccn(C(C)C)n2)sc2nc(-c3nccn3C)nc(NC[C@@H]3CCC(=O)N3)c12 [Compound 51]  inhibition at 20 µM             51 to 75%
11  CO[C@H]1CC[C@@H](Nc2nc(C(=O)Nc3ccccc3)nc3sccc23)C1 (racemic) [Compound 15]  inhibition at 20 µM                    0%
12  COc1cccn2c(-c3nc(O)c4scc(-c5ccccn5)c4n3)ncc12 [Compound 84]  inhibition at 20 µM             26 to 50%
13  COCCn1ccnc1-c1nc(O)c2scc(-c3ccncc3)c2n1 [Compound 94]  inhibition at 20 µM            76 to 100%
14  CO[C@H]1CC[C@H](Nc2nc(-c3nccn3C)nc3sc(-c4ccn(C(C)C)n4)c(C)c23)CC1 [Compound 54]  inhibition at 20 µM             26 to 50%
15  CO[C@H]1C[C@@H](Nc2nc(-c3nccn3C)nc3sc(-c4ccn(C(C)C)n4)c(C)c23)C[C@H]1OC [Compound 42]  inhibition at 20 µM             51 to 75%
16  CO[C@H]1CC[C@@H](Nc2nc(C(N)=O)nc3sc(-c4ccn(C(C)C)n4)cc23)C1 (racemic) [Compound 17]  inhibition at 20 µM                    0%

* * *

- test-target: KRas Q61H mutant (Homo sapiens, UniProt P01116, Q61H)
- Construct: made in house
- test-name: Ras GTP binding domain inhibition assay (labeled-GTP competition, cell-free)
- details: at 20 μM, without SOS; read-out: KRas Q61H mutant: % inh.
The following molecules are listed with their measured inhibition at 20 µM values.
assay-metric: inhibition at 20 µM

> print(dat)
                                    molecule         assay.metric  reported.measurement
 1  CO[C@H]1CCCN(c2nc(-c3nccn3C)nc3sc(-c4ccn(C(C)C)n4)c(C)c23)C1  inhibition at 20 µM             51 to 75%
 2    Cn1ccc(-c2nc(O)c3scc(-c4ccccn4)c3n2)n1  inhibition at 20 µM              1 to 25%
 3  Cc1c(-c2ccn(C(C)C)n2)sc2nc(-c3nccn3C)nc(NCCc3cn(C)cn3)c12  inhibition at 20 µM             51 to 75%
 4      Oc1nc(-c2ccncn2)nc2c(-c3ccccn3)csc12  inhibition at 20 µM             26 to 50%
 5  CO[C@H]1CC[C@@H](Nc2nc(C(=O)Nc3ccccc3)nc3sccc23)C1 (racemic)  inhibition at 20 µM              1 to 25%
 6  CO[C@@H]1CC[C@H]1CNc1nc(-c2nccn2C)nc2sc(-c3ccn(C(C)C)n3)c(C)c12 (racemic)  inhibition at 20 µM            76 to 100%
 7  COCCCNc1nc(-c2nccn2C)nc2sc(-c3ccn(C(C)C)n3)c(C)c12  inhibition at 20 µM            76 to 100%
 8  CC(C)OCCn1ccnc1-c1nc(O)c2scc(-c3ccccn3)c2n1  inhibition at 20 µM             51 to 75%
 9  CCOCCn1ccnc1-c1nc(O)c2scc(-c3ccccn3)c2n1  inhibition at 20 µM            76 to 100%
10  CO[C@H]1CC[C@@H](Nc2nc(-c3nccn3C)nc3sc(-c4cn(C)cn4)c(-c4ccccc4)c23)C1 (racemic)  inhibition at 20 µM            76 to 100%
11  COCC1CCN(c2nc(-c3ccccn3)nc3sc(-c4ccn(C(C)C)n4)c(C)c23)C1 (racemic)  inhibition at 20 µM             26 to 50%
12  Oc1nc(-c2ccc3[nH]ncc3n2)nc2c(-c3ccccn3)csc12  inhibition at 20 µM              1 to 25%
13     Cn1ccnc1-c1nc(O)c2scc(-c3ncccc3F)c2n1  inhibition at 20 µM             51 to 75%
14  COc1ccnc(Nc2nc(-c3nccn3C)nc3sc(-c4ccn(C(C)C)n4)c(C)c23)n1  inhibition at 20 µM            76 to 100%
15  Cc1c(-c2ccn(C(C)C)n2)sc2nc(-c3nccn3C)nc(NC[C@@H]3CCC(=O)N3)c12  inhibition at 20 µM             51 to 75%
16  CO[C@H]1CC[C@@H](Nc2nc(C(N)=O)nc3sc(-c4ccn(C(C)C)n4)cc23)C1 (racemic)  inhibition at 20 µM              1 to 25%
17  COCCCn1ccnc1-c1nc(O)c2scc(-c3ccccn3)c2n1  inhibition at 20 µM             51 to 75%
